- Tested on: H1650 cells
- Assay info: CellTiterGlo (CTG) cell viability, 3D, 120 h, H1650 (Example 8)
- Format: cell-based, human
- Measurement conditions: H1650 3D, mean of n1 and n2, read-out: H1650 3D CTG IC50 Mean of n1 and n2
Readout type: IC50
Don't forget the unit after the value.

[[record]]
molecule = "Cc1cc(N(C)c2nc(C(=O)O)c(CCCOc3ccc(C#CCN(C)C(=O)OCc4ccc(NC(=O)[C@H](C)NC(=O)[C@@H](NC(=O)CCOCCN5C(=O)CC(C)C5=O)C(C)C)cc4CC[C@@H]4O[C@H](C(=O)O)[C@@H](O)[C@H](O)[C@H]4O)cc3F)s2)nnc1Nc1nc2ccccc2s1 (stereo partly drawn) [Ab C -L106C-P7]"
readout_type = "IC50"
endpoint_value = "1650 pM"

[[record]]
molecule = "CC[N+](C)(CC#Cc1ccc(OCCCc2sc(N3CCCc4c3nnc(Nc3nc5ccccc5s3)c4C)nc2C(=O)O)c(F)c1)Cc1ccc(NC(=O)[C@H](CCCNC(N)=O)NC(=O)[C@@H](NC(=O)CCOCCN2C(=O)CC(C)C2=O)C(C)C)cc1 (stereo partly drawn)"
readout_type = "IC50"
endpoint_value = "800 pM"


Now take the following molecule into account.
Given the molecule Cc1c(Nc2nc3ccccc3s2)nnc2c1CCCN2c1nc(C(=O)O)c(CCCOc2ccc(C#CCN(CCN(C)C)C(=O)OCc3ccc(NC(=O)[C@H](CCCNC(N)=O)NC(=O)[C@@H](NC(=O)CCOCCN4C(=O)CC(C)C4=O)C(C)C)cc3)cc2F)s1 (stereo partly drawn) and test system H1650 cells, the measured IC50 is 750 pM

====

- Tested on: H1650 cells
- Assay info: CellTiterGlo (CTG) cell viability, 3D, 120 h, H1650 (Example 8)
- Assay type: cell-based, human
- Measurement conditions: Homo sapiens, NCI-H1650, H1650 3D, mean of n1 and n2, read-out: H1650 3D CTG IC50 Mean of n1 and n2
Would you mind telling me the reported IC50 of each entry?
Answers are plain numbers, in nM.

Batch: IC50 for all items listed.
1. Cc1c(Nc2nc3ccccc3s2)nnc2c1CCCN2c1ccc(-c2cnn(C[C@]34C[C@]5(C)C[C@](C)(C3)C[C@@](OCCN(C)CCCCO)(C5)C4)c2C)c(C(=O)O)n1 [P37]
2. Cc1cc(N(C)c2nc(C(=O)O)c(CCCOc3ccc(C#CCN(C)C)cc3F)s2)nnc1Nc1nc2ccccc2s1 [P2]
3. Cc1cc(N(C)c2nc(C(=O)O)c(CCCOc3ccc(C#CC(C)N(C)C)cc3F)s2)nnc1Nc1nc2ccccc2s1 (stereo not shown) [P11]
4. Cc1c(Nc2nc3ccccc3s2)nnc2c1CCCN2c1nc(C(=O)O)c(CCCOc2ccc(C#CCN3CCCC3)cc2F)s1 [P9]

1. 0.8
2. 1.48
3. 0.95
4. 1.05

====

Would you mind telling me the reported pIC50 of each entry?
- Test system: H1650 cells
- Assay info: CellTiterGlo (CTG) cell viability, 3D, 120 h, H1650 (Example 8)
- Format: cell-based, human
- Measurement conditions: Homo sapiens, NCI-H1650, H1650 3D, mean of n1 and n2, read-out: H1650 3D CTG IC50 Mean of n1 and n2
Numbers only, as −log10 of the molar value.

The cases that follow already have their pIC50 on record.
[[record]]
mol_smiles = "COc1ccc2sc(Nc3nnc4c(c3C)CCCN4c3ccc(-c4cnn(C[C@]56C[C@]7(C)C[C@](C)(C5)C[C@@](OCCN5CCCC5)(C7)C6)c4C)c(C(=O)O)n3)nc2c1"
experimental_system = "H1650 cells"
readout_type = "pIC50"
endpoint_value = 9.28

[[record]]
mol_smiles = "Cc1c(Nc2nc3ccccc3s2)nnc2c1CCCN2c1nc(C(=O)O)c(CCCOc2ccc(C#CCNCCN(C)C)cc2F)s1"
experimental_system = "H1650 cells"
readout_type = "pIC50"
endpoint_value = 8.83

[[record]]
mol_smiles = "CNCC#Cc1ccc(OCCCc2sc(N3CCCc4c3nnc(Nc3nc5ccccc5s3)c4C)nc2C(=O)O)c(F)c1"
experimental_system = "H1650 cells"
readout_type = "pIC50"
endpoint_value = 7.80

[[record]]
mol_smiles = "Cc1c(Nc2nc3ccccc3s2)nnc2c1CCCN2c1ccc(-c2cnn(CC34CC5(C)CC(C)(C3)CC(OCCNCC(=O)O)(C5)C4)c2C)c(C(=O)O)n1"
experimental_system = "H1650 cells"
readout_type = "pIC50"
endpoint_value = 8.16

[[record]]
mol_smiles = "CNCC#Cc1ccc(OCCCc2sc(N(C)c3cc(C)c(Nc4nc5ccccc5s4)nn3)nc2C(=O)O)c(F)c1"
experimental_system = "H1650 cells"
readout_type = "pIC50"
endpoint_value = 8.21

[[record]]
mol_smiles = "Cc1c(Nc2nc3ccccc3s2)nnc2c1CCCN2c1ccc(-c2cnn(CC34CC5(C)CC(C)(CC(CCCN(C)C)(C5)C3)C4)c2C)c(C(=O)O)n1"
experimental_system = "H1650 cells"
readout_type = "pIC50"
endpoint_value = 9.45


Now take the following molecule into account.
The molecule identified as "Cc1c(Nc2nc3ccccc3s2)nnc2c1CCCN2c1ccc(-c2cnn(CC34CC5(C)CC(C)(CC(CCCN(C)CC(=O)O)(C5)C3)C4)c2C)c(C(=O)O)n1" registered its pIC50 at 8.19
